System: OVCAR-8 ovarian
Protocol Details: NCI-60 one-dose screen, 48 h (100 = growth as untreated, 0 = no growth, -100 = all killed)
Settings: 10 µM
The panel holds about 83,000 compounds, 20% with a hit somewhere; the sample as a whole holds those more often.
Measured Endpoint: growth (%)

# Compound, Study System, Measured Endpoint, Quantity Unit, Numeric Value
rows = [
    ("COc1cc2c(cc1NC(=O)C(F)(F)F)-c1ccc(NC(=O)C(F)(F)F)cc1C2", "OVCAR-8 ovarian", "growth", "%", 96.8),
    ("Cc1ccc(NCCNCC(C)(C)O)c2c(=O)c3ccc(Cl)cc3sc12", "OVCAR-8 ovarian", "growth", "%", 32.2),
    ("N#Cc1c(-c2ccc(Cl)cc2)csc1NC(=O)Nc1ccc(Cl)c(C(F)(F)F)c1", "OVCAR-8 ovarian", "growth", "%", 23),
    ("CC(C)(C)c1ccc(S(=O)(=O)N[C@H]2CC[C@H]3[C@@H]4CCc5cc(O)c([N+](=O)[O-])cc5[C@H]4CC[C@]23C)cc1", "OVCAR-8 ovarian", "growth", "%", 59.6),
    ("CCc1cc(Cl)c(OC)c(C(=O)NCC2CCCN2CC)c1O (centres undefined)", "OVCAR-8 ovarian", "growth", "%", 92.5),
    ("CC(C)C1=C(O)C2=C(C(=O)C1=O)[C@@]1(C)CCCC(C)(C)[C@@H]1CC2", "OVCAR-8 ovarian", "growth", "%", 70),
    ("CCOC(=O)c1sc2ncnc(Nc3ccc4c(cnn4C(=O)Nc4ccc(C)c(Cl)c4)c3)c2c1C", "OVCAR-8 ovarian", "growth", "%", 102),
    ("CNC(=O)c1cc(Oc2ccc3c(c2)sc2nc(-c4ccc(N)cc4)cn23)ccn1", "OVCAR-8 ovarian", "growth", "%", 10.9),
    ("CC(C)(C)c1ccc(S(=O)(=O)Oc2ccc(NC(=O)C3CCCCC3)cc2)cc1", "OVCAR-8 ovarian", "growth", "%", 51),
    ("O=C(CCCNC(=O)c1nc(-c2ccccc2)n(-c2ccccc2)n1)NO", "OVCAR-8 ovarian", "growth", "%", 96.9),
    ("COc1cc(-c2nn(-c3cccc(NC(=O)NCCNC(=O)c4cccc(C(F)(F)F)c4)c3)cc2-c2ccncc2)ccc1Cl", "OVCAR-8 ovarian", "growth", "%", 44.1),
    ("CCOC(=O)C1=CSC2=NC3=C(CCC/C3=C\\c3cc(OC)c(OC)c(OC)c3)C(c3cc(OC)c(OC)c(OC)c3)N12 (centres undefined)", "OVCAR-8 ovarian", "growth", "%", 13.5),
    ("COc1cc(OC)c2c(=O)c(O)c(-c3ccccc3)oc2c1", "OVCAR-8 ovarian", "growth", "%", 61.9),
    ("CC[N+](CC)=c1ccc2nc3c(cc(NCc4ccccc4)c4ccccc43)oc-2c1", "OVCAR-8 ovarian", "growth", "%", -27.2),
    ("C[C@H]1[C@H](OC(=O)CCC(=O)O)O[C@@H]2O[C@]3(C)CC[C@H]4[C@H](C)CC[C@@H]1[C@@]24OO3", "OVCAR-8 ovarian", "growth", "%", 23.4),
    ("CC(=O)Nc1ccc(S(=O)(=O)N/N=C(\\C)c2ccc(C)cc2C)cc1", "OVCAR-8 ovarian", "growth", "%", 98.5),
    ("Cc1ccc(C)c(COc2cc(NC(=O)c3ccc4c(c3)OCO4)ccc2N(C)S(C)(=O)=O)c1", "OVCAR-8 ovarian", "growth", "%", 24.9),
    ("O=C1c2ccccc2C(=O)c2c1ccc(C(Br)Br)c2[N+](=O)[O-]", "OVCAR-8 ovarian", "growth", "%", 43.1),
    ("CCN(CC)CCCC(C)N=C(C1=C(C(=NC(C)CCCN(CC)CC)c2cccc(OC)c2)C(=O)NC1=O)c1cccc(OC)c1 (centres undefined)", "OVCAR-8 ovarian", "growth", "%", -11.3),
]

----------
Test system: T-47D breast
Protocol Details: NCI-60 one-dose screen, 48 h (100 = growth as untreated, 0 = no growth, -100 = all killed)
Settings: 10 µM
Procedure: Growth inhibition of the T-47D human tumor cell line is measured as a screen for anti-cancer activity. Cells are grown in 96 well plates and exposed to the test compound for 48 hours. Compounds are tested at a single concentration, which is 10^-5 M for most compounds. The reported endpoint is percent growth (GI% or GIPRCNT), where numbers from 0 - 100% represent growth inhibition, and numbers from -100% - 0 represent cell death. For example, a value of 40 represents 60% growth inhibition. […]
About 83,000 compounds went through this panel and 20% of them were active in at least one assay; those are over-represented in the sample as a whole.
# maps each entry to its growth

# Compound, Study System, growth [%]
measured = [
    ("O=C(/C=C/c1cccc(B(O)O)c1)c1cccc(B(O)O)c1", "T-47D breast", 11.1),
    ("O=C(NCCNC(=O)c1ccc(F)cc1)Nc1ccc(-n2cc(-c3ccncc3)c(-c3ccc(Cl)c(O)c3)n2)cc1", "T-47D breast", 30.1),
    ("Cc1noc(C)c1CSc1ccccc1C(=O)N1CCN(c2cccc(C(F)(F)F)c2)CC1", "T-47D breast", 49.2),
    ("COc1cc(/C=C2\\CCCC3C2=Nc2ccccc2NC3c2cc(OC)c(OC)c(OC)c2)cc(OC)c1OC (stereo unspecified)", "T-47D breast", 23.9),
    ("CCn1c(SCc2ccc(C)cc2)nnc1-c1nn(-c2ccc(Cl)cc2Cl)c(-c2ccc(Cl)cc2)c1C", "T-47D breast", -8.15),
    ("CCN(CCCNc1cc2c(c(N)c1S(=O)(=O)O)C(=O)c1ccccc1C2=O)c1ccccc1", "T-47D breast", 93.1),
    ("c1ccc(CSc2ncccc2-c2nnc(SCCN3CCOCC3)o2)cc1", "T-47D breast", 101),
    ("COc1cc2cc(Oc3ccc(NC(=O)Nc4ccc(C(F)(F)F)cc4)cc3)c(C)nc2cc1OC", "T-47D breast", 57.5),
    ("COc1ccc(-c2nnc(SCC(=O)Nc3ccc(C(=O)/C=C/c4ccccc4)cc3)n2-c2ccccc2)cc1OC", "T-47D breast", 72.9),
    ("c1ccc(/C(=N\\Nc2ccc3ccccc3n2)c2ccccn2)cc1", "T-47D breast", 16.5),
    ("S=c1cnc2ccccc2[nH]1", "T-47D breast", 81.9),
    ("COC(=O)c1cc2oc(/C=C3/SC(=S)N(N)C3=O)cc2n1Cc1ccccc1", "T-47D breast", 75.6),
    ("O=C(NCCCNS(=O)(=O)c1ccc(Cl)cc1)Nc1ccc(-n2cc(-c3ccncc3)c(-c3ccc(Cl)c(O)c3)n2)cc1", "T-47D breast", 22.2),
    ("CC(=O)OC/C=C(/C)C[P+](c1ccccc1)(c1ccccc1)c1ccccc1", "T-47D breast", 14.4),
    ("CC(C)c1ccc(C(C)C(=O)N(CC2=C(C(C)c3ccccn3)c3ccccc3C2)C(C)C)cc1 (stereo unspecified)", "T-47D breast", 13.3),
    ("COc1cc(-c2nn(-c3ccc(NC(=O)NCCCNC(=O)c4ccccc4)cc3)cc2-c2ccncc2)ccc1Cl", "T-47D breast", 67.5),
    ("CN(C)CCCOc1ccc(NC2=C(Cl)C(=O)C(Nc3ccc(OCCCN(C)C)cc3)=C(Cl)C2=O)cc1", "T-47D breast", -39.3),
    ("COc1ccc2c(c1)CC=C1[C@@H]2CC[C@]2(C)C(=O)/C(=N/O)C[C@@H]12", "T-47D breast", 90.2),
    ("O=C(Nc1cc([N+](=O)[O-])c2[nH]c(=O)c3ccccc3c2c1)C(F)(F)F", "T-47D breast", 105),
    ("NC(CSC(c1ccccc1)(c1ccccc1)c1cccc2ccccc12)C(=O)O (stereo unspecified)", "T-47D breast", 103),
    ("OCC1OC(n2cnc3c(NCc4ccco4)ncnc32)C(O)C1O (stereo unspecified)", "T-47D breast", 8.92),
    ("COc1cc(/C=C2\\CCCC3=C2N=C2SC(C)=CN2C3c2cc(OC)c(OC)c(OC)c2)cc(OC)c1OC (stereo unspecified)", "T-47D breast", 33.1),
    ("CS(=O)(=O)c1nccc(-c2c(-c3cccc(O)c3)nc3sccn23)n1", "T-47D breast", 99),
    ("CCCN(CCC)C(=O)[C@H](CC)[C@@H]1CC[C@@H](C)[C@@H]([C@H](C)[C@@H](O)[C@@H](C)C(=O)[C@H](CC)C2O[C@]3(C=C[C@@H](O)[C@]4(CC[C@@](C)([C@H]5CC[C@](O)(CC)[C@H](C)O5)O4)O3)[C@H](C)C[C@@H]2C)O1 (stereo partly specified)", "T-47D breast", 11.1),
    ("COC1=CC(=O)OC(c2ccc(OC)cc2)C1 (stereo unspecified)", "T-47D breast", 101),
    ("O=C(N/N=C/c1ccc(Cl)cc1)c1ccc(Cc2n[nH]c(=O)c3cccnc23)cc1", "T-47D breast", 99.4),
    ("CCN(CC)CCCC(C)N=C(C1=C(C(=NC(C)CCCN(CC)CC)c2cccc(OC)c2)C(=O)NC1=O)c1cccc(OC)c1 (stereo unspecified)", "T-47D breast", -37.3),
    ("O=c1oc2c(cc1-c1ccc(F)cc1)C(O)Oc1ccccc1-2 (stereo unspecified)", "T-47D breast", 87.4),
    ("COc1ccc(/C(C#N)=C/c2cccc(OC)c2OC)cc1", "T-47D breast", 80.7),
    ("COc1cc2c(cc1NC(=O)C(Cl)Cl)-c1ccc(NC(=O)C(Cl)Cl)cc1C2", "T-47D breast", 3.05),
    ("COc1ccc(Nc2cnc3cc(NS(=O)(=O)c4ccc(C)cc4)ccc3n2)cc1", "T-47D breast", 94.4),
]

FYI, the data here is from PubChem BioAssay (NCI).
